test: Inhibition of gamma-secretase-mediated APP cleavage assessed as amyloid beta40 level after 2 hrs by ELISA
measured-property: pIC50
// scale note: pIC50 = -log10(conc_M); give the bare number

Some solved cases for reference:
Problem: Give the reported value of pIC50 for this record: O=S(=O)(c1ccc(C(F)(F)F)cc1)N1C(C2CC2)c2cn[nH]c2C(F)(F)C1C1CC1 (stereo not drawn)
Solution: 8.82

Problem: Give the reported value of pIC50 for this record: CC1C(=O)c2[nH]ncc2C(C2CC2)N1S(=O)(=O)c1ccc(C(F)(F)F)cc1 (stereo not drawn)
Solution: 9.30

Problem: Give the reported value of pIC50 for this record: O=C1CN(S(=O)(=O)c2ccc(C(F)(F)F)nc2)C(C2CC2)c2cn[nH]c21 (racemic)
Solution: 8.25

More entries:
Problem: Give the reported value of pIC50 for this record: C[C@@H]1N(S(=O)(=O)c2ccc(C(F)(F)F)nc2)[C@H](C2CC2)c2cn[nH]c2C1(F)F (relative stereo)
Solution: 8.92

Problem: Give the reported value of pIC50 for this record: CC[C@@H]1C(=O)c2[nH]ncc2[C@H](CC)N1S(=O)(=O)c1ccc(Cl)cc1 (stereo in doubt)
Solution: 9.52

Problem: Give the reported value of pIC50 for this record: O=C1c2[nH]ncc2C(C2CC2)N(S(=O)(=O)c2ccc(C(F)(F)F)nc2)C12CC2 (stereo in doubt; 16e)
Solution: 5.97

----------
assay: Oxidative metabolic stability in human liver microsomes assessed as compound remaining at 1 uM after 30 mins in presence of 1 mM NADPH; type: ADME, Microsome; settings: liver microsomes, read-out: Stability
Reported remaining at 0.5 h, 1 µM is given for each of the following molecules.
Answer with a number only, understood to be in %.

Some solved cases for reference:
Problem: Give the reported value of remaining at 0.5 h, 1 µM for this record: O=C1c2[nH]ncc2C(C2CC2)N(S(=O)(=O)c2ccc(C(F)(F)F)nc2)C12CC2 (racemic)
Solution: 86

Problem: Give the reported value of remaining at 0.5 h, 1 µM for this record: O=S(=O)(c1ccc(C(F)(F)F)nc1)N1[C@@H](C2CC2)C(F)(F)c2[nH]ncc2[C@H]1C1CC1 (stereo in doubt)
Solution: 71

Problem: Give the reported value of remaining at 0.5 h, 1 µM for this record: O=S(=O)(c1ccc(C(F)(F)F)nc1)N1[C@@H](C2CC2)c2cn[nH]c2C(F)(F)[C@H]1C1CC1 (stereo in doubt)
Solution: 80

Problem: Give the reported value of remaining at 0.5 h, 1 µM for this record: CC[C@@H]1c2cn[nH]c2C(=O)[C@H](CC)N1S(=O)(=O)c1ccc(C(F)(F)F)nc1 (relative stereo)
Solution: 57

Problem: Give the reported value of remaining at 0.5 h, 1 µM for this record: O=C1c2[nH]ncc2C(C2CC2)N(S(=O)(=O)c2ccc(C(F)(F)F)nc2)C1C1CCOCC1 (racemic)
Solution: 57

More entries:
Problem: Give the reported value of remaining at 0.5 h, 1 µM for this record: C[C@@H]1N(S(=O)(=O)c2ccc(C(F)(F)F)nc2)[C@H](C2CC2)c2cn[nH]c2C1(F)F (relative stereo)
Solution: 79

Problem: Give the reported value of remaining at 0.5 h, 1 µM for this record: C[C@@H]1C(=O)c2[nH]ncc2[C@H](C)N1S(=O)(=O)c1ccc(C(F)(F)F)nc1 (stereo in doubt)
Solution: 62

Problem: Give the reported value of remaining at 0.5 h, 1 µM for this record: O=C1c2[nH]ncc2C(C2CC2)N(S(=O)(=O)c2ccc(C(F)(F)F)cn2)C12CC2 (racemic)
Solution: 76

Problem: Give the reported value of remaining at 0.5 h, 1 µM for this record: CC1C(=O)c2[nH]ncc2C(C2CC2)N1S(=O)(=O)c1ccc(C(F)(F)F)cc1 (centres undefined)
Solution: 62
